From: PubChem BioAssay AID488864

test: INS-1E beta-cell viability without cytokines, dose response, cytotoxicity control for beta-cell cytokine protection project, CellTiter-Glo luminescence, dry powder (AID 488864); settings: INS-1E rat beta cells, 48 h, no cytokines; series mostly up to 26 µM
Measured potencies and affinities stand elsewhere. Calls of active or inactive are those of the source.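 The calls were made as follows: active = ATP signal reduced by compound, with fitted active dose under ten times the top valid tested dose; inactive = the rest, compounds that increase ATP levels included.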
metric: outcome

# structure_notation, metric, result
measured = [
    ("C[C@@H]1CN([C@@H](C)CO)C(=O)c2cccc(NC(=O)Nc3cccc4ccccc34)c2O[C@H]1CN(C)S(=O)(=O)c1ccc2c(c1)OCCO2", "outcome", "inactive"),
    ("COc1ccc(S(=O)(=O)N(C)C[C@H]2Oc3c(NC(=O)Nc4cccc5ccccc45)cccc3C(=O)N([C@H](C)CO)C[C@H]2C)cc1", "outcome", "inactive"),
    ("C[C@@H]1CN([C@@H](C)CO)C(=O)c2cccc(NC(=O)Nc3cccc4ccccc34)c2O[C@H]1CN(C)S(=O)(=O)c1cccc(F)c1", "outcome", "inactive"),
]
